Cited source: patent US20170210813A1

System Name: T1, human PDGFRb.mFc (human)
T1 construct: Soluble dimeric construct with mouse Fc; also called hPDGFRb.mFc; soluble human PDGFR-beta.mFc
T1 chain: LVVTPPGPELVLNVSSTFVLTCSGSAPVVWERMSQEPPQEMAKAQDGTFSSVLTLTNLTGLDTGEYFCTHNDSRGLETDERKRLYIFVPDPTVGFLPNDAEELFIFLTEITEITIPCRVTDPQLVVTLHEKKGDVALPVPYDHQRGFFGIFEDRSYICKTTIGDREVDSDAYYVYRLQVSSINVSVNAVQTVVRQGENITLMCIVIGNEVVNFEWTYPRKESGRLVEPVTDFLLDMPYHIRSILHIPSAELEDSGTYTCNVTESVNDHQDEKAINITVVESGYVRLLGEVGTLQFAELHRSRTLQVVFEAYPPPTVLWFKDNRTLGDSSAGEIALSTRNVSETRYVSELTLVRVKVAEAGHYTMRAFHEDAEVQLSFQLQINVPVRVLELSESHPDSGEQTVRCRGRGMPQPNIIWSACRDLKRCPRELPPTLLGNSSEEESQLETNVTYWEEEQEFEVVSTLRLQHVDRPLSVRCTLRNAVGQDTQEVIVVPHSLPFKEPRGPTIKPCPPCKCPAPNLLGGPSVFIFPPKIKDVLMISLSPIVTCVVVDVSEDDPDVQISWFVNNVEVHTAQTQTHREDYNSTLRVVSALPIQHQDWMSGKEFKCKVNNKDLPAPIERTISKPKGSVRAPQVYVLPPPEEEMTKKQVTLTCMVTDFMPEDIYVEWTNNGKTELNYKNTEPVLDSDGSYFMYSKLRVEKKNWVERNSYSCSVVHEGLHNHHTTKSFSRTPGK
Test Description: SPR, mAb captured, 25 C
Measured Parameter: pKd
Expect pKd as a plain number equal to -log10 of the molar concentration.

Fill in: pKd of H2M3373N (antibody, V domains shown, mouse Fc (H2M prefix; isotype not spelled out)) VH: EVQLRDSGGGLVQPGGSLRLSCVASGFTFSSYWMSWVRQAPGKGLEWVVNINRDGSEKYYVDSVKGRFIISRDNTKNSLYLQMESLRAEDTAVYYCARDPPYHLYGMDVWGQGTTVTVSS VL: DIQMTQSPSSLSASVGDRVTITCRTSQGIRVDLAWYQQKPGKAPERLIYAASSLQSGVPSRFSGGGSGTEFTLTVSSLQPEDFATYYCLQHHNFPYTFGQGTKLEIK is ___
9.29

Fill in: pKd of H1M3374N (antibody, V domains shown, mouse Fc format; also called H2M3374N) VH: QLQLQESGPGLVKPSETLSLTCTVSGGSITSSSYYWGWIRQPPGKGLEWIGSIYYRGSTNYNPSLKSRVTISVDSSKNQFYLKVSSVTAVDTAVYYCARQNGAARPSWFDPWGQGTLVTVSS VL: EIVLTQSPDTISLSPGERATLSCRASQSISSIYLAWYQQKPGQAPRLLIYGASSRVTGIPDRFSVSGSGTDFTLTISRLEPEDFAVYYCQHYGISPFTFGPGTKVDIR is ___
9.97

Fill in: pKd of H2M3368N (antibody, V domains shown, mouse Fc (H2M prefix; isotype not spelled out)) VH: QVQLQQWGAGLLKPSETLSLTCAVYGGSFSGYYWTWIRQSPGKGLEWMGEISHRGTTNYNPSLKSRLTISLDTSNNHFSLKLSSVTAADTAVYYCAREERLGMGYDYFGLDVWGQGTTVTVSS VL: EIVLTQSPATLSLSPGERATLSCRASQSVSTYLTWYQQKPGQAPRLLIYDASNRATGIPARFSGSGSGTDFTLTISSLEPEDCAVYYCQQRSIWITFGQGTRLEIK is ___
9.50
